Target: Cytochrome P450 2C9 (Homo sapiens)
Sequence (P11712 whole entry): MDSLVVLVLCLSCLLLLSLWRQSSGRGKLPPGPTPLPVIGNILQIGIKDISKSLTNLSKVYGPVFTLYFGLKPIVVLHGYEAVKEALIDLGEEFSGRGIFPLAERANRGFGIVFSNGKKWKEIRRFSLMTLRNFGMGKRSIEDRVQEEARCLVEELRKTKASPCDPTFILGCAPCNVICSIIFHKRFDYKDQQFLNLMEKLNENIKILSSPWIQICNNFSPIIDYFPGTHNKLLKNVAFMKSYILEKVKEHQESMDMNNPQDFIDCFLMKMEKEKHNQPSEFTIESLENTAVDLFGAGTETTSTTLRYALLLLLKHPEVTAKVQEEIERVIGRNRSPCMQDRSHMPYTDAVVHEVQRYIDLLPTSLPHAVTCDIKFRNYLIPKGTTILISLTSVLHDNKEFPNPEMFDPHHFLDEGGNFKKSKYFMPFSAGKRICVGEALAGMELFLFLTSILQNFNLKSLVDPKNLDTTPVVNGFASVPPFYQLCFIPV
Test: Inhibition of CYP2C9 (unknown origin)
Format: ADME
pIC50: −log10 of the molar value.
metric: pIC50

1 = Cc1ccc(-c2cc(C(=O)N[C@H](C)c3ccc(C(F)(F)F)nc3)cc(C(C)(C)O)c2)nc1
2 = Cc1ccc(-c2cc(C(=O)N[C@H](C)c3ccc(F)cn3)cc(C3=NO[C@H](c4ccccn4)C3)c2)nc1
Task for the reader: decide whether 1 or 2 has the larger pIC50. Field: selected label. Fill in the label of the entry you choose.
2

###

Test: Half life in rat
Type: ADME, organism-based
Conditions: in vivo
metric: half-life (h)

Below are worked cases with known answers.
C[C@@H](NC(=O)c1cc(-c2ccc(Cl)cc2)cc(C(C)(C)O)c1)c1ccc(C(F)(F)F)[n+]([O-])c1    2.4
C[C@@H](NC(=O)c1cc(-c2ccc(F)cn2)cc(C(C)(C)O)c1)c1ccc(C(F)(F)F)[n+]([O-])c1    0.48
C[C@@H](NC(=O)c1cc(-c2ccc(Cl)cn2)cc(C(C)(C)O)c1)c1ccc(C(F)(F)F)[n+]([O-])c1    1.3

A = Cc1ccc(-c2cc(C(=O)N[C@H](C)c3ccc(F)cn3)cc(C3=NO[C@H](c4ccccn4)C3)c2)nc1
B = Cc1ccc(-c2cc(C(=O)N[C@H](C)c3ccc(C(F)(F)F)[n+]([O-])c3)cc(C(C)(C)O)c2)cc1
Task for the reader: decide whether A or B has the larger half-life. Field: selected label. Fill in the label of the entry you choose.
A

###

Biological target: P2X purinoceptor 3 (Homo sapiens) (UniProt P56373)
Assay: Antagonist activity at recombinant human P2X3 receptor expressed in Flp-In-293 cells assessed as inhibition of alphabeta-meATP-induced calcium flux preincubated for 10 mins followed by alphabeta-meATP addition measured at 5 sec intervals by Fluo-4 dye based FLIPR assay
Format: cell-based
metric: IC50 (nM)

Below are worked cases with known answers.
Cc1ccc(-c2cc(C(=O)N[C@@H](C)c3nc(C)no3)cc(-c3ncccc3F)c2)nc1    17
Cc1ccc(-c2cc(C(=O)N[C@H](C)c3nc(C)no3)cc(-c3ncccc3F)c2)nc1    3
Cc1ccc(-c2cc(C(=O)N[C@H](C)c3ccc(C(F)(F)F)nc3)cc(-c3ncccc3F)c2)nc1    8
Cc1ccc(-c2cc(C(=O)N[C@H](C)c3ccc(F)cn3)cc(-n3nccn3)c2)nc1    37

I = Cc1ccc(-c2cc(C(=O)N[C@H](C)c3ccc(F)cn3)cc(C(C)(C)O)c2)nc1
II = C[C@@H](NC(=O)c1cc(-c2ccc(Cl)cn2)cc(C(C)(C)O)c1)c1ccc(C(F)(F)F)[n+]([O-])c1
III = Cc1ccc(-c2cc(C(=O)N[C@H](C)c3ccc(F)c[n+]3[O-])cc(-c3ncccc3F)c2)nc1
IV = Cc1ccc(-c2cc(C(=O)NCCc3nc(C)no3)cc(-c3ncccc3F)c2)nc1
Number of molecules to sort: 4. Sort criterion: IC50, ascending. Response format: the labels, sorted as the prompt asks.
III, II, IV, I

###

Target: P2X purinoceptor 3 (Homo sapiens)
Assay: Antagonist activity at recombinant human P2X3 receptor expressed in Flp-In-293 cells assessed as inhibition of alphabeta-meATP-induced calcium flux preincubated for 10 mins followed by alphabeta-meATP addition measured at 5 sec intervals by Fluo-4 dye based FLIPR assay
Format: cell-based
pIC50: −log10 of the molar value.
metric: pIC50

Cc1ccc(-c2cc(C(=O)N[C@H](C)c3ccc(F)cn3)cc(-c3ncccc3F)c2)nc1    8.10
Cc1ccc(-c2cc(C(=O)NCc3nc(C(C)C)no3)cc(-c3ncccc3F)c2)nc1    6.81
Cc1ccc(-c2cc(C(=O)N[C@H](C)c3ccc(C(F)(F)F)nc3)cc(C(C)(C)O)c2)nc1    7.85

1 = Cc1ccc(-c2cc(C(=O)N[C@H](C)c3ccc(C(F)(F)F)[n+]([O-])c3)cc(C(C)(C)O)c2)cc1
2 = C[C@@H](NC(=O)c1cc(-c2ccc(F)cn2)cc(C(C)(C)O)c1)c1ccc(C(F)(F)F)[n+]([O-])c1
3 = Cc1ccc(-c2cc(C(=O)N[C@H](C)c3ccc(C(F)(F)F)[n+]([O-])c3)cc(-c3ncccc3F)c2)nc1
Number of compounds to sort: 3. Sort criterion: pIC50, ascending. Response format: the labels, sorted as the prompt asks.
2, 1, 3
(2: 7.09, 1: 7.70, 3: 8.30)

P = C[C@@H](NC(=O)c1cc(-c2ccc(Cl)cc2)cc(C(C)(C)O)c1)c1ccc(C(F)(F)F)[n+]([O-])c1
Q = Cc1ccc(-c2cc(C(=O)NC3(c4nc(C)no4)CC3)cc(-c3ncccc3F)c2)nc1
R = Cc1ccc(-c2cc(C(=O)N[C@H](C)c3nnc[nH]3)cc(-c3ncccc3F)c2)nc1
S = Cc1ccc(-c2cc(C(=O)N[C@H](C)c3ccc(C(F)(F)F)[n+]([O-])c3)cc(C(C)(C)O)c2)nc1
T = Cc1ccc(-c2cc(C(=O)N[C@H](C)c3ccc(F)cn3)cc(N3CCOCC3)c2)nc1
Arrange by pIC50, high to low. Response format: the labels, sorted as the prompt asks.
S, P, T, Q, R
(S: 8.30, P: 7.68, T: 7.33, Q: 6.77, R: 6.55)

###

Molecular target: UniProtKB P56373
Sequence (P56373 whole entry): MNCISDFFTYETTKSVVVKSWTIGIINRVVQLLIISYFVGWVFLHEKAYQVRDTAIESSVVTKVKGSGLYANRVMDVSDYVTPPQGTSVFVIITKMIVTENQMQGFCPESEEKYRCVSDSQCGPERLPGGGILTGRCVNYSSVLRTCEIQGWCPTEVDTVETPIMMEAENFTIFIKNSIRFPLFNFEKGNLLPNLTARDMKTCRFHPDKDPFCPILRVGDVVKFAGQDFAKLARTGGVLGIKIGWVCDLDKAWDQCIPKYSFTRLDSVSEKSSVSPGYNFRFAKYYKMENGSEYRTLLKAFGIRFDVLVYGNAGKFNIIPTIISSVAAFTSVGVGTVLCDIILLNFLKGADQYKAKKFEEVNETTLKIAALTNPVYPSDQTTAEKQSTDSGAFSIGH
Assay: Antagonist activity at recombinant human P2X3 receptor expressed in Flp-In-293 cells assessed as inhibition of CTP-induced […] current response preincubated for 2 mins followed by CTP addition along with test compound by whole cell patch-clamp method
pIC50: −log10 of the molar value.
metric: pIC50

Cc1ccc(-c2cc(C(=O)N[C@H](C)c3ccc(F)cn3)cc(C3=NO[C@H](c4ccccn4)C3)c2)nc1    7.62
C[C@@H](NC(=O)c1cc(-c2ccc(Cl)cn2)cc(C(C)(C)O)c1)c1ccc(C(F)(F)F)[n+]([O-])c1    7.74

###

Target: UDP-glucuronosyltransferase 1A1 (Homo sapiens, UniProt P22309)
Sequence (P22309 whole entry): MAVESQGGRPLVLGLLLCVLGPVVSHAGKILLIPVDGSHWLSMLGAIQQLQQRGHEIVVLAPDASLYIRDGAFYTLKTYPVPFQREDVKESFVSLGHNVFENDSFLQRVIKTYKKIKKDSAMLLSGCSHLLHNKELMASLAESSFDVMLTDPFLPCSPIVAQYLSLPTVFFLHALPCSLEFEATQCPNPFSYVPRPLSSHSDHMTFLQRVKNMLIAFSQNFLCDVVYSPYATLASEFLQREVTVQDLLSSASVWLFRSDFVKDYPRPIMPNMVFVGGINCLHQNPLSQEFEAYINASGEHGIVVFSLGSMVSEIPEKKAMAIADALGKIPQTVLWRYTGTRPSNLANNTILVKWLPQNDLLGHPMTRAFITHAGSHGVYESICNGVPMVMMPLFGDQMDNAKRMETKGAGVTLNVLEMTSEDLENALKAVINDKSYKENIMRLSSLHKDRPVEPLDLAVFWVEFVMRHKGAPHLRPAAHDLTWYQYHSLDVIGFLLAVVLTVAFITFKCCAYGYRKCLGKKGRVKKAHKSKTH
Assay: Inhibition of UGT1A1 in human liver microsomes assessed as decrease in estradiol-3 glucuronidation
Format: ADME
metric: IC50

// returns reported IC50 for input `C[C@@H](NC(=O)c1cc(-c2ccc(Cl)cn2)cc(C(C)(C)O)c1)c1ccc(C(F)(F)F)[n+]([O-])c1`
> 20 µM

###

Test: Protein binding in rat plasma
Assay type: ADME, cell-free
Details: read-out: PPB (converted)
metric: fraction unbound

Below are worked cases with known answers.
Cc1ccc(-c2cc(C(=O)N[C@H](C)c3nc(C)no3)cc(-c3ncccc3F)c2)nc1    0.004
Cc1ccc(-c2cc(C(=O)N[C@H](C)c3ccc(C(F)(F)F)nc3)cc(-c3ncccc3F)c2)nc1    0.014
Cc1ccc(-c2cc(C(=O)N[C@H](C)c3ccc(C(F)(F)F)[n+]([O-])c3)cc(C(C)(C)O)c2)nc1    0.376
Cc1ccc(-c2cc(C(=O)N[C@H](C)c3ccc(F)cn3)cc(-c3ncccc3F)c2)nc1    0.008
Cc1ccc(-c2cc(C(=O)N[C@H](C)c3ccc(F)cn3)cc(C(C)(C)O)c2)nc1    0.18

a = Cc1ccc(-c2cc(C(=O)N[C@H](C)c3ccc(F)c[n+]3[O-])cc(-c3ncccc3F)c2)nc1
b = Cc1ccc(-c2cc(C(=O)N[C@H](C)c3ccc(C(F)(F)F)nc3)cc(C(C)(C)O)c2)nc1
c = C[C@@H](NC(=O)c1cc(-c2ccc(F)cn2)cc(C(C)(C)O)c1)c1ccc(C(F)(F)F)[n+]([O-])c1
Number of molecules to sort: 3. Sort criterion: fraction unbound, ascending. Response format: the labels, sorted as the prompt asks.
b, a, c
(b: 0.048, a: 0.096, c: 0.447)

I = Cc1ccc(-c2cc(C(=O)N[C@H](C)c3ccc(C(F)(F)F)[n+]([O-])c3)cc(C(C)(C)O)c2)cc1
II = C[C@@H](NC(=O)c1cc(-c2ccc(Cl)cn2)cc(C(C)(C)O)c1)c1ccc(C(F)(F)F)[n+]([O-])c1
III = Cc1ccc(-c2cc(C(=O)N[C@H](C)c3ccc(F)cn3)cc(C3=NO[C@H](c4ccccn4)C3)c2)nc1
Number of molecules to sort: 3. Sort criterion: fraction unbound, ascending. Response format: the labels, sorted as the prompt asks.
III, I, II
(III: 0.016, I: 0.046, II: 0.238)

I = Cc1ccc(-c2cc(C(=O)N[C@H](C)c3ccc(C(F)(F)F)[n+]([O-])c3)cc(-c3ncccc3F)c2)nc1
II = Cc1ccc(-c2cc(C(=O)N[C@H](C)c3ccc(F)cn3)cc(N3CCOCC3)c2)nc1
Please indicate which has the smaller reported fraction unbound: I , or II . Field: selected label. Fill in the label of the entry you choose.
I
(I: 0.048, II: 0.149)
